Parameter: LD50 at 48 h. Scope: all listed entries.
- procedure text: Acute toxicity (LD50, Litchfield-Wilcoxon test)
- setup conditions: mouse, in vivo, ip; intraperitoneal; deaths counted 48 hours after treatment; fasted mice
The reply should contain only the number, in mg/kg.

Consider the reported LD50 at 48 h for these compounds:
1) CN1CCC2(C)CC1Cc1c2sc2ccccc12 (racemic) [Product I] : 35.2
2) CC1=CC(Cc2csc3ccccc23)N(C)CC1 (stereo not drawn) [Product III] : 275

We next turn to a different compound, shown below.
LD50 at 48 h lookup needed for CC1=CCN(C)C(Cc2csc3ccccc23)C1 (stereo not drawn) [Product II] , thanks. 916
